Give Perturb-seq pooled growth sgRNA counts, T0 for every item shown.
test system: K562 CRISPRi cells; experiment: Perturb-seq pooled growth measurement (sgRNA counts, growth phenotype γ, relative activity); type: cell-based, human; conditions: sequencing read counts; T0 = day two after transduction
Numbers only.

substance | numeric_value
DUT_+_48624411.23-P1P2_00: sgRNA targeting DUT, GCGAGCGAGGAGACCACCGG, SEQ ID NO: 110 (listed as DNA, chemistry not fully specified) | 14025
EIF2S1_−_67827080.23-P1P2_00: sgRNA targeting EIF2S1, GAGCGAAGCGCACGCTGAGG, SEQ ID NO: 136 (listed as DNA, chemistry not fully specified) | 5718
BCR_+_23523092.23-P1P2_15: sgRNA targeting BCR, GCGCGCGGGGCCCGTCGCAG, SEQ ID NO: 129 (listed as DNA, chemistry not fully specified) | 5377
GATA1_−_48645022.23-P1P2_00: sgRNA targeting GATA1, GTGAGCTTGCCACATCCCCA, SEQ ID NO: 119 (listed as DNA, chemistry not fully specified) | 5712
RPS14_+_149829238.23-P1P2_00: sgRNA targeting RPS14, GAGGCCCGGGCGCGACAATC, SEQ ID NO: 45 (listed as DNA, chemistry not fully specified) | 11846
EIF2S1_−_67827080.23-P1P2_07: sgRNA targeting EIF2S1, GAGCGAAGCGCTCGCTGAGG, SEQ ID NO: 140 (listed as DNA, chemistry not fully specified) | 6931
BCR_+_23523092.23-P1P2_07: sgRNA targeting BCR, GCGCGCGGGGCTCGTCTCAG, SEQ ID NO: 126 (listed as DNA, chemistry not fully specified) | 8081
TUBB_+_30688126.23-P1_10: sgRNA targeting TUBB, GCGGCAGGAAGGTTCAGAGA, SEQ ID NO: 109 (listed as DNA, chemistry not fully specified) | 7085

Please go through the list and note Perturb-seq pooled growth sgRNA counts, T0 for each substance.
1. HSPA9_−_137911079.23-P1P2_00: sgRNA targeting HSPA9, GGAGCTGCGCGATGCGGTGG, SEQ ID NO: 131 (listed as DNA, chemistry not fully specified)
2. GINS1_−_25388381.23-P1P2_03: sgRNA targeting GINS1, GGACTATAACGAAAGGAGTG, SEQ ID NO: 96 (listed as DNA, chemistry not fully specified)

A:
[5450, 9799]

====

system: K562 CRISPRi cells; test: Perturb-seq pooled growth measurement (sgRNA counts, growth phenotype γ, relative activity); assay type: cell-based, human; settings: sequencing read counts; 10 days of growth (day twelve after transduction)
Param label: returns Criterion met when Perturb-seq pooled growth sgRNA counts, d10 < 30000, returns Criterion not met otherwise, including exact equality.

substance | assigned_class
GINS1_−_25388381.23-P1P2_08: sgRNA targeting GINS1, GGACTAGAGCGAAAGGAGTG, SEQ ID NO: 94 (listed as DNA, chemistry not fully specified) | Criterion met
GINS1_−_25388381.23-P1P2_14: sgRNA targeting GINS1, GGACTAGAACGAAAGGAGCG, SEQ ID NO: 97 (listed as DNA, chemistry not fully specified) | Criterion met

Q: Please indicate whether the reported Perturb-seq pooled growth sgRNA counts, d10 of non-targeting_00001: non-targeting negative control sgRNA, GTGCACCCGGCTAGGACCGG, SEQ ID NO: 161 (listed as DNA, chemistry not fully specified) [reference compound] is strictly below 30000.
A: Criterion not met

Q: Could you please tell me whether Perturb-seq pooled growth sgRNA counts, d10 recorded for ALDOA_+_30077139.23-P1P2_13: sgRNA targeting ALDOA, GGTCACCAGGACCCCTTTTG, SEQ ID NO: 160 (listed as DNA, chemistry not fully specified) is less than 30000?
A: Criterion met

Q: Please determine if COX11_+_53045977.23-P1P2_04: sgRNA targeting COX11, GGCTCTGGCGCCCTGGATGG, SEQ ID NO: 143 (listed as DNA, chemistry not fully specified) is below 30000 in terms of Perturb-seq pooled growth sgRNA counts, d10.
A: Criterion met
